- assay system: T1, mFz: Fz domain and C-terminal flanking sequence of mouse MuSK (D307 to T494) with C-terminal Avi- and … (mouse, UniProt Q61006 307-494, limits assumed, biotinylated in vitro using the BirA enzyme)
- T1 construct: also called mouse Fz; not shown: Avi- and His6-tags
- T1 sequence (looked up): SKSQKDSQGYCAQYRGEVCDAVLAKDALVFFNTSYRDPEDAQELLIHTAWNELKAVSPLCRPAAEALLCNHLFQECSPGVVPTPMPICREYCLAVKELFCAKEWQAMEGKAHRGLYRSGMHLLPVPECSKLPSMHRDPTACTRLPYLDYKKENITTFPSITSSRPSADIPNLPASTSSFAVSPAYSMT
- experimental protocol: bead-binding assay, IgG format: biotinylated antigen on streptavidin beads, flow cytometry, 1:1 fit; average ± s.d., n=3
readout label: pKd
By convention, pKd is the negative base-10 log of a molar concentration.

Request: Would you kindly share the measured pKd for mIgG2a-X3 (antibody, V domains shown, mouse IgG2a format; also called X3 in mouse IgG2a format) VH: EVQLVESGGGLVQPGGSLRLSCAASGFTISSSSIHWVRQAPGKGLEWVASISSSSGYTYYADSVKGRFTISADTSKNTAYLQMNSLRAEDTAVYYCARSWYEMWMSGYFGFDYWGQGTLVTVSS VL: DIQMTQSPSSLSASVGDRVTITCRASQSVSSAVAWYQQKPGKAPKLLIYSASSLYSGVPSRFSGSRSGTDFTLTISSLQPEDFATYYCQQSSSSLITFGQGTKVEIK ?
Response: 10.02
